- assayName: qHTS assay for identifying genotoxic compounds that show differential cytotoxicity against isogenic chicken DT40 cell lines with known DNA damage response pathways - Rad54/Ku70 mutant cell line (AID 743015); note: nearly all actives have a fitted effect of over 60% in size; note: potency is the fitted concentration of half-maximal effect
- assaySetup: DT40 Rad54/Ku70 mutant viability, CellTiter-Glo, 40 h; series mostly up to 66.8 µM
Inconclusive results are not listed. Calls of active or inactive are those of the source. Calls come from the whole dose curve; as a rule, active = well fitted cell-killing curve with a large enough effect in the repeat runs; inconclusive = weak or mixed curves; inactive = no such curve, though single readings can be large or run the other way.
resultType: Potency

>  <molecule>
Cc1cccc(C)c1OCC(=O)N[C@@H](Cc1ccccc1)[C@@H](O)C[C@H](Cc1ccccc1)NC(=O)[C@H](C(C)C)N1CCCNC1=O

>  <resultType>
Potency

>  <endpointResult>
11.9 µM (active)

$$$$
>  <molecule>
CCCCNc1ccc(C(=O)OCCOCCOCCOCCOCCOCCOCCOCCOCCOC)cc1

>  <resultType>
Potency

>  <endpointResult>
inactive

$$$$
>  <molecule>
CC(CSC(=O)c1ccccc1)C(=O)N1C[C@@H](Sc2ccccc2)C[C@H]1C(=O)O (stereo partly drawn)

>  <resultType>
Potency

>  <endpointResult>
inactive

$$$$

---

- experimentalTarget: Androgen receptor (Homo sapiens)
- assayName: qHTS assay to identify small molecule antagonists of the androgen receptor (AR) signaling pathway using the MDA cell line in the presence of 0.5 nM R1881 (AID 1259243); note: nearly all actives have a fitted effect of over 50% in size
- assaySetup: MDA-kb2 MMTV-luciferase, R1881 0.5 nM, 16 h; series mostly up to 42.5 µM
- Text: U.S. Tox21 Program National Center for Advancing Translational Sciences [NCATS] NIH Chemical Genomics Center [NCGC] U.S. Environmental Protection Agency [EPA] National Institutes of Environmental Health Sciences [NIEHS] National Toxicology Program [NTP] U.S. Food and Drug Administration [FDA] Tox21 Assay Overview: Androgen receptor (AR) is an important member of the nuclear receptor family. Its signaling plays a critical role in AR-dependent prostate cancer and other androgen related diseases. […]
Records with an inconclusive call do not appear. Activity calls are given as the source filed them. Calls come from the whole dose curve; as a rule, active = well fitted inhibition curve with a large enough effect in the repeat runs; inconclusive = weak or mixed curves; inactive = no such curve, though single readings can be large or run the other way.
Respond with a class label; see active, inactive

>  <compound>
O=S(c1cc(Cl)cc(Cl)c1O)c1cc(Cl)cc(Cl)c1O

>  <classAssignment>
inactive

$$$$

I would be grateful if you could indicate the recorded call for CCN(CC)c1ccc(C(=C2C=CC(=[N+](CC)CC)C=C2)c2cc(S(=O)(=O)O)ccc2S(=O)(=O)[O-])cc1 .
active

I would be grateful if you could indicate the recorded call for NCCCN1CCOCC1 .
inactive

I would be grateful if you could indicate the recorded call for CCO[C@H](Cc1ccc(OCCc2ccc(OS(C)(=O)=O)cc2)cc1)C(=O)O .
inactive

I would be grateful if you could indicate the recorded call for CN1CCC(=C2c3ccccc3Sc3ccccc32)CC1 .
active

I would be grateful if you could indicate the recorded call for CCCn1cnc2c1c(=O)n(CCCCC(C)=O)c(=O)n2C .
inactive

I would be grateful if you could indicate the recorded call for COC(=O)C1=C(C)NC(COC(N)=O)=C(C(=O)OC(C)C)C1c1cccc(Cl)c1Cl (configuration not stated) .
inactive

---

- assayName: qHTS assay to identify small molecule agonists of the RXR signaling pathway - cell viability counter screen (AID 1159529); note: nearly all actives have a fitted effect of over 50% in size; note: potency is the fitted concentration of half-maximal effect
- assaySetup: RXR-alpha-bla HEK293T viability, CellTiter-Glo, 16 h; series mostly up to 76.8 µM
Results filed as inconclusive are left out. Calls of active or inactive are those of the source. The call rests on the fitted dose curve; in most records, active means well fitted cell-killing curve with a large enough effect in the repeat runs; inconclusive means weak or mixed curves, or effect the other way; inactive means no such curve, though single readings can be large or run the other way.
resultType: Potency

// solved cases for Potency follow
>  <compound>
CCCCCCCC/C=C\CCCCCCCC(=O)OCC

>  <Potency>
inactive

$$$$
>  <compound>
CC/C=C\CCOC(=O)CC

>  <Potency>
inactive

$$$$
>  <compound>
Cc1ncc(CO)c(C=O)c1O

>  <Potency>
inactive

$$$$
>  <compound>
C=C(C)C(=O)OCCO

>  <Potency>
inactive

$$$$
>  <compound>
C1CCCNCCC1

>  <Potency>
inactive

$$$$

Measured Potency of C=C1C(=C/C=C2\CCC[C@]3(C)[C@@H]([C@H](C)/C=C/[C@@H](O)C4CC4)CC[C@@H]23)C[C@@H](O)C[C@@H]1O : 23.9 µM (active)

Measured Potency of Brc1c2ccccc2cc2ccccc12 : 35 µM (active)

Measured Potency of CN(C)C(=O)NC1(c2ccccc2)CCN(CC[C@@]2(c3ccc(F)c(F)c3)CN(C(=O)c3ccccc3)CCO2)CC1 : 45.5 µM (active)

---

- assayName: qHTS assay to identify small molecule antagonists of the sonic hedgehog signaling (Shh) pathway - cell viability counter screen (AID 1259367); note: nearly all actives have a fitted effect of over 55% in size
- assaySetup: NIH/3T3 Gli1-Luc viability, CellTiter-Fluor, 24 h; series mostly up to 92.4 µM
Results filed as inconclusive are left out. Activity calls are given as the source filed them. Calls come from the whole dose curve; as a rule, active = well fitted cell-killing curve with a large enough effect in the repeat runs; inconclusive = weak or mixed curves, or effect the other way; inactive = no such curve, though single readings can be large or run the other way.
Respond with a class label; see active, inactive

>  <compound>
Nc1cccc(S(=O)(=O)c2cccc(N)c2)c1

>  <classAssignment>
inactive

$$$$
>  <compound>
CC(COCCO)OCCO (stereo not drawn)

>  <classAssignment>
inactive

$$$$
>  <compound>
CCO[C@H](Cc1ccc(OCCc2ccc(OS(C)(=O)=O)cc2)cc1)C(=O)O

>  <classAssignment>
inactive

$$$$

I would be grateful if you could indicate the recorded call for OC[C@H]1O[C@@H](OCCc2ccc(O)cc2)[C@H](O)[C@@H](O)[C@@H]1O .
inactive

I would be grateful if you could indicate the recorded call for C[N+](C)(C)CCOC(=O)CCC(=O)OCC[N+](C)(C)C .
inactive

I would be grateful if you could indicate the recorded call for O=C(O)c1ccc(S(=O)(=O)O)cc1C(=O)O .
inactive

I would be grateful if you could indicate the recorded call for CC(CC=O)c1ccccc1 (stereo not drawn) .
inactive

I would be grateful if you could indicate the recorded call for COc1ccc(C(=O)c2ccc(OC)cc2O)c(O)c1 .
inactive

I would be grateful if you could indicate the recorded call for COc1cc(Cl)c(OC)cc1N .
inactive

I would be grateful if you could indicate the recorded call for CC[N+]1(CC)CCC(=C(c2ccccc2)c2ccccc2)C1C (stereo not drawn) .
inactive

I would be grateful if you could indicate the recorded call for NS(=O)(=O)c1ccc(N2CCCCS2(=O)=O)cc1 .
inactive

I would be grateful if you could indicate the recorded call for CC1OC(=O)C(C)OC1=O (stereo not drawn) .
inactive

I would be grateful if you could indicate the recorded call for CCCCCCCCCOS(=O)(=O)O .
inactive

I would be grateful if you could indicate the recorded call for C[C@@H](c1ncncc1F)C(O)(Cn1cncn1)c1ccc(F)cc1F (stereo partly drawn) .
inactive

I would be grateful if you could indicate the recorded call for OC(CN1CCC(Cc2ccc(F)cc2)CC1)c1ccc(Cl)cc1 (stereo not drawn) .
inactive

I would be grateful if you could indicate the recorded call for OCc1cc(C(O)CNCCCCCCOCCCCc2ccccc2)ccc1O (stereo not drawn) .
active

I would be grateful if you could indicate the recorded call for CCCCCCCCCCCCCCCCCCOS(=O)(=O)O .
inactive

I would be grateful if you could indicate the recorded call for O=CC1CC=CCC1 (stereo not drawn) .
inactive

---

- experimentalTarget: Peroxisome proliferator-activated receptor delta (Homo sapiens)
- assayName: qHTS assay to identify small molecule agonists of the peroxisome proliferator-activated receptor delta (PPARd) signaling pathway (AID 743212);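 note: HEK293H cells with PPARd UAS beta-lactamase reporter GeneBLAzer system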
- assaySetup: HEK293H PPARd-UAS-bla, beta-lactamase FRET ratio, 17 h; series mostly up to 62.6 µM
Records with an inconclusive call do not appear. Calls of active or inactive are those of the source. Calls come from the whole dose curve.
Respond with a class label; see active, inactive

Worked cases, answers included:
>  <compound>
CCCCCCCCCCCCN1CCCCCC1=O

>  <classAssignment>
inactive

$$$$
>  <compound>
Clc1ccc2c(c1)CCc1cccnc1C2=C1CCNCC1

>  <classAssignment>
inactive

$$$$
>  <compound>
O=[N+]([O-])c1cccc(S(=O)(=O)O)c1

>  <classAssignment>
inactive

$$$$
>  <compound>
Cc1oc(-c2ccccc2)nc1CCOc1cccc2c1ccn2CCC(=O)O

>  <classAssignment>
active

$$$$
>  <compound>
C[C@H]1C[C@H]2[C@@H]3CCC4=CC(=O)C=C[C@]4(C)[C@@]3(Cl)[C@@H](O)C[C@]2(C)[C@@]1(O)C(=O)CO

>  <classAssignment>
inactive

$$$$

I would be grateful if you could indicate the recorded call for CC(C)(O)c1ccc(CNC(=O)c2cccnc2Oc2ccc(F)cc2)cc1 .
inactive

I would be grateful if you could indicate the recorded call for CC(CSC(=O)c1ccccc1)C(=O)N1C[C@@H](Sc2ccccc2)C[C@H]1C(=O)O (stereo not given in full) .
inactive

I would be grateful if you could indicate the recorded call for CCO[C@H](Cc1ccc(OCCc2ccc(OS(C)(=O)=O)cc2)cc1)C(=O)O .
active

I would be grateful if you could indicate the recorded call for O=C(NCC1CN(c2ccc(N3CCOCC3=O)cc2)C(=O)O1)c1ccc(Cl)s1 (stereo not given) .
inactive

I would be grateful if you could indicate the recorded call for CCCCCCCN .
inactive

I would be grateful if you could indicate the recorded call for CCC(Cl)CCC(Cl)C(Cl)CC(Cl)C(Cl)C(Cl)CCl (stereo not given) .
inactive
